# Tested on: DCAMKL1
# Construct: gene DCLK1
# Setup Conditions: concentration: 1 μM, replicates: in singlicate; n = 1;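 note: KINOMEscan kinase panel screen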
Measure: %Inh (%)
Note: unit % is implicit; provide only the numeric part.

Reference set, count: 4
So, Cc1cccc(-c2nc(-c3ccc(S(C)(=O)=O)cc3)sc2-c2ccnc(NCCc3ccccc3)c2)c1 ? Its %Inh was 5

So, CC(C)(C)c1ccc(C(=O)Nc2cn3cc(Cl)ccc3n2)cc1 ? Its %Inh was 15

So, CS(=O)(=O)c1ccc(-c2c(-c3ncn[nH]3)sc(N3CCOCC3)c2C#N)cc1 ? Its %Inh was 19

So, Fc1cc(Cl)ccc1Nc1ccnc2cc(I)ccc12 ? Its %Inh was 15

Turning to the following molecule.
So, CC(C)(C)c1ccc(C(=O)Nc2cn3cc(-c4cccnc4)ccc3n2)cc1 ? Its %Inh was 45

====

# System: GRK4
# Setup Conditions: concentration: 1 μM, replicates: in singlicate; n = 1
# key: entry, value: %Inh
Note: unit % is implicit; provide only the numeric part.

Reference set, count: 4
So, Fc1cccc(COc2nnc(-c3ccc4c(c3)CCO4)o2)c1 ? Its %Inh was 0

So, Cc1cccc(-c2nc(Nc3ccc4[nH]ncc4c3)c3ccccc3n2)n1 [GW857175] ? Its %Inh was 10

So, Cc1cc(N2Cc3ccccc3C2)nc(Nc2ccc(S(=O)(=O)N3CCOCC3)cc2)n1.Cl [GSK1669917] ? Its %Inh was 0

So, CS(=O)(=O)c1ccc(-c2nc3n(c2-c2ccncc2)CCC3)cc1 [SKF-105942] ? Its %Inh was 23

More entries:
So, O=c1cc(N2CCOCC2)nc2n(Cc3cccc(Cl)c3Cl)ccn12 [GSK2286295] ? Its %Inh was 0

So, Cc1cccc(-c2cc(Nc3ccncc3)c3ccccc3n2)n1 [GSK223675] ? Its %Inh was 0

So, CC(C)(C)c1ccc(C(=O)Nc2cn3cc(Cl)ccc3n2)cc1 ? Its %Inh was 0

====

# key: entry, value: %Inh
# Tested on: SYK
# Setup Conditions: concentration: 1 μM, replicates: in singlicate; n = 1
Note: unit % is implicit; provide only the numeric part.

So, Cc1cccc(-c2nc(Nc3cccc(C(N)=O)c3)c3ccccc3n2)n1 ? Its %Inh was 14

So, COC(=O)c1c(-c2ccccc2)c2cc(C(=O)O)ccc2c(=O)n1Cc1ccccc1 ? Its %Inh was 0

So, Cn1ccc2ncnc(Oc3cccc(C(=O)Nc4ccccc4)c3)c21 ? Its %Inh was 2

So, O=S(=O)(c1ccc(-c2ccnc3[nH]ccc23)cc1)N1CCCC1 ? Its %Inh was 13

Turning to the following compound.
So, COc1ccc(CNC(=O)NC2CCN(c3ccnc(Nc4cc(OC)c(OC)c(OC)c4)n3)C2)cc1 (centres unmarked) ? Its %Inh was 21

====

# Tested on: INSR
# Setup Conditions: concentration: 1 μM, replicates: in singlicate; n = 1
// NB: equality with 3% counts as NOT MET; only %Inh strictly below is MET

Please review the following examples before continuing.
Asked: Find out if reported %Inh for Fc1cc(Cl)ccc1Nc1ccnc2cc(-c3ccc(CN4CCCCC4)o3)ccc12 is less than 3%
Given back: MET

Asked: Find out if reported %Inh for O=C(Nc1n[nH]c2nc(-c3nccs3)c(Br)cc12)C1CCCC1 is less than 3%
Given back: NOT MET

Asked: Find out if reported %Inh for Cc1cccc(-c2nc(Nc3ccncc3)c3ccccc3n2)n1 is less than 3%
Given back: NOT MET

Asked: Find out if reported %Inh for Nc1nc(-c2nccs2)c(-c2ccnc3ccccc23)s1 is less than 3%
Given back: MET

Asked: Find out if reported %Inh for O=C(Nc1ccc2c(c1)OCO2)NC1CCN(c2ccnc(Nc3ccc(F)cc3)n2)C1 (stereo not drawn) is less than 3%
Given back: MET

Asked: Find out if reported %Inh for Cc1cc(-c2ccc3c(c2)CC[C@@H](N[C@@H](C)c2ccccc2)C3)cnc1N.Cl is less than 3%
Given back: NOT MET

More entries:
Asked: Find out if reported %Inh for Cc1cccc(-c2nc(-c3ccc(S(C)(=O)=O)cc3)sc2-c2ccnc(NCCc3ccccc3)c2)c1 is less than 3%
Given back: NOT MET

Asked: Find out if reported %Inh for O=C1NC(=O)C(N2CCc3ccccc32)=C1c1ccccc1Cl is less than 3%
Given back: NOT MET

====

# System: STK35
# Setup Conditions: concentration: 1 μM, replicates: in singlicate; n = 1
# key: entry, value: %Inh
Note: unit % is implicit; provide only the numeric part.

So, Cc1cc(-c2ccc3c(c2)CC[C@@H](N[C@@H](C)c2ccccc2)C3)cnc1N.Cl [GW412617] ? Its %Inh was 10

More entries:
So, CCn1c(-c2ccccn2)nc2cnccc21 [SB-736398] ? Its %Inh was 1

So, Cc1ccc(C(=O)Nc2ccc(Nc3ccnc4cc(-c5ccccn5)ccc34)cc2O)cc1.Cl [GW440146] ? Its %Inh was 0

So, NC(=O)c1nnc2ccccc2c1N ? Its %Inh was 10

So, Cc1cccc(-c2nc(Nc3cccc(C(N)=O)c3)c3ccccc3n2)n1 [GW876019] ? Its %Inh was 0

So, Cc1cccc(-c2nc(Nc3ccncc3)c3ccccc3n2)n1 [GW855857] ? Its %Inh was 0

So, Cn1ccc2ncnc(Oc3ccc(NC(=O)Nc4ccccc4)cc3)c21 ? Its %Inh was 17

So, Cc1cc(N2Cc3ccccc3C2)nc(Nc2ccc(S(=O)(=O)N3CCOCC3)cc2)n1.Cl [GSK1669917] ? Its %Inh was 0

So, COC(=O)c1c(-c2ccccc2)c2cc(C(=O)O)ccc2c(=O)n1Cc1ccccc1 ? Its %Inh was 0

====

# Test system: WEE2
# Setup Conditions: concentration: 1 μM, replicates: in singlicate; n = 1
Measure: %Inh (%)
Note: unit % is implicit; provide only the numeric part.

Reference set, count: 2
So, Cc1cc(N2Cc3ccccc3C2)nc(Nc2ccc(S(=O)(=O)N3CCOCC3)cc2)n1.Cl [GSK1669917] ? Its %Inh was 0

So, Cc1nnc(-c2ccc3occ(-c4ccc(S(C)=O)cc4)c3c2)[nH]1 (stereo not drawn) ? Its %Inh was 32

More entries:
So, Fc1cccc(COc2nnc(-c3ccc4c(c3)CCO4)o2)c1 ? Its %Inh was 19

So, Cc1ccccc1-n1cnc2c(N)ncnc21 [SKF-97510] ? Its %Inh was 0

So, Nc1ncnc2[nH]c(-c3ccccc3)nc12 [AH5015] ? Its %Inh was 0

So, COc1cc2ncn(-c3cc(OCC4CCCO4)c(C(N)=O)s3)c2cc1OC (stereo not drawn) [GSK204607] ? Its %Inh was 3

So, CS(=O)(=O)c1ccc(-c2nc3n(c2-c2ccncc2)CCC3)cc1 [SKF-105942] ? Its %Inh was 10

So, CC1=C(C(=O)Nc2cc3cn[nH]c3cc2F)C(c2ccc(C(F)(F)F)cc2)CC(=O)N1 (stereo not drawn) [GSK429286] ? Its %Inh was 20

So, O=c1cc(N2CCOCC2)nc2n(Cc3cccc(Cl)c3Cl)ccn12 [GSK2286295] ? Its %Inh was 0

====

# Tested on: INSRR
# Setup Conditions: concentration: 1 μM, replicates: in singlicate; n = 1
Measure: %Inh
Write your answer as a measured quantity: the number, then the unit.

Reference set, count: 4
So, CN(C)CCN(C)C(=O)c1cc(-c2ccncc2)c(-c2ccc(Cl)c(O)c2)o1.Cl.Cl [SB-710397] ? Its %Inh was 0%

So, Cc1ccc(NC(=O)Nc2cc(C(C)(C)C)nn2-c2ccccc2)cc1 [GSK1014915] ? Its %Inh was 0%

So, COc1cc2ncn(-c3cc(OCC4CCCO4)c(C(N)=O)s3)c2cc1OC (stereo not drawn) [GSK204607] ? Its %Inh was 0%

So, CS(=O)(=O)c1ccc(-c2nc3n(c2-c2ccncc2)CCC3)cc1 [SKF-105942] ? Its %Inh was 0%

More entries:
So, Cn1ccc2ncnc(Oc3ccc(NC(=O)Nc4ccccc4)cc3)c21 ? Its %Inh was 0%

====

# System: JAK1(JH1domain-catalytic)
# Setup Conditions: concentration: 1 μM, replicates: in singlicate; n = 1
Please enter class 1 where %Inh is greater than or equal to 10%, and class 0 where it is lower.

Please review the following examples before continuing.
Asked: Textbook exercise: given the entry CC(C)(C)c1ccc(C(=O)Nc2cn3cc(-c4cccnc4)ccc3n2)cc1 , state whether its %Inh is greater than or equal to 10%.
Given back: class 0

Asked: Textbook exercise: given the entry O=C(O)COc1ncnc2cc(-c3ccc4[nH]ncc4c3)sc12 , state whether its %Inh is greater than or equal to 10%.
Given back: class 0

Asked: Textbook exercise: given the entry O=S(=O)(c1ccc(-c2ccnc3[nH]ccc23)cc1)N1CCCC1 , state whether its %Inh is greater than or equal to 10%.
Given back: class 1

Asked: Textbook exercise: given the entry COc1ccc(Nc2nccc(NCCNC(=O)Nc3ccccc3F)n2)cc1 , state whether its %Inh is greater than or equal to 10%.
Given back: class 1

Asked: Textbook exercise: given the entry Cl.c1ccc(-c2n[nH]cc2-c2ccnc(-c3ccc(CN4CCOCC4)cc3)c2)nc1 , state whether its %Inh is greater than or equal to 10%.
Given back: class 0

Asked: Textbook exercise: given the entry Clc1cc(Cl)cc(Nc2ccnc(Nc3cc(Cl)cc(Cl)c3)n2)c1 , state whether its %Inh is greater than or equal to 10%.
Given back: class 1

Asked: Textbook exercise: given the entry COc1ccc(Nc2nccc(-c3cccc(NC(=O)c4cc5cc(F)ccc5[nH]4)c3)n2)cc1 , state whether its %Inh is greater than or equal to 10%.
Given back: class 1

Asked: Textbook exercise: given the entry NC(=O)c1nnc2ccccc2c1N , state whether its %Inh is greater than or equal to 10%.
Given back: class 0

# evaluate next
Asked: Textbook exercise: given the entry O=C1NC(=O)C(N2CCc3ccccc32)=C1c1ccccc1Cl , state whether its %Inh is greater than or equal to 10%.
Given back: class 0
